Known K ass of a selection of molecules
# measuredTarget: Tissue-type plasminogen activator (Homo sapiens) (UniProt P00750)
# Sequence (P00750 36-562 limits assumed): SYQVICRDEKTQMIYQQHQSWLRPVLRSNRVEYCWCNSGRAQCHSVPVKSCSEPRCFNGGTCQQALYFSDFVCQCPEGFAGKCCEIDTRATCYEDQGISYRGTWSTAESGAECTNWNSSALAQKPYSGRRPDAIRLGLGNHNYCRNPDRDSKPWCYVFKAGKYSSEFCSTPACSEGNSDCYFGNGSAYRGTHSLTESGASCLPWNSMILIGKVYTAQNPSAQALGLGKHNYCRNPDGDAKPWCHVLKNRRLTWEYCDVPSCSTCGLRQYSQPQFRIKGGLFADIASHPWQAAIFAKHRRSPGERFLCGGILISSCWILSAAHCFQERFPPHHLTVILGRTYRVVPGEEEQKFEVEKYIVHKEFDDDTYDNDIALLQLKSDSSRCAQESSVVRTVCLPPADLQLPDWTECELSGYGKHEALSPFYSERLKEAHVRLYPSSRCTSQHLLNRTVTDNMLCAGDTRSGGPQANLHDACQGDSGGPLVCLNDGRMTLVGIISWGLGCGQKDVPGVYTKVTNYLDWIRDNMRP
# assayText: Inhibitory activity against the human tissue plasminogen activator
assayReadout: K ass

smilesstructure=O=C(O)CN[C@H](CC1CCCCC1)C(=O)N1CCC[C@H]1C(=O)NCCCc1c[nH]cn1 measuredtarget="Tissue-type plasminogen activator (Homo sapiens) (UniProt P00750)" testresult="< 10000 l M-1"
smilesstructure=N[C@H](CC1CCCCC1)C(=O)N1CCC[C@H]1C(=O)NCCCc1c[nH]cn1 measuredtarget="Tissue-type plasminogen activator (Homo sapiens) (UniProt P00750)" testresult="< 10000 l M-1"
smilesstructure=NC(N)=NCCCCNC(=O)[C@@H]1CCCN1C(=O)[C@H](N)CC1CCCCC1 measuredtarget="Tissue-type plasminogen activator (Homo sapiens) (UniProt P00750)" testresult="11000 l M-1"
smilesstructure=N[C@H](CC1CCCCC1)C(=O)N1[C@H](C(=O)NCCCc2c[nH]cn2)C[C@@H]2CCCC[C@@H]21 measuredtarget="Tissue-type plasminogen activator (Homo sapiens) (UniProt P00750)" testresult="< 10000 l M-1"
